B1: Gamma-crystallin C, residues 91 to 170; numbered along this chain, P07315 (parent)
chain: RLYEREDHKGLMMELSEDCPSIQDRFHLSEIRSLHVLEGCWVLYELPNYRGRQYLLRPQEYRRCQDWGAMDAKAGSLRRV

# Variants of: B1
# TEST_METHOD_NOTES: abundance fitness (aPCA) (normalised: wild type 0, dead -1); higher = more abundant; growth selection in yeast, the domain comes from the species named
# EXPERIMENTAL_CONTEXT: Homo sapiens
Classify as follows. Reported abundance fitness greater than or equal to -0.7: class 1. Reported abundance fitness below: class 0.

Some entries whose results are on file:
{"RESIDUE_CHANGE": "H27G", "GROUP_LABEL": "class 1"}
{"RESIDUE_CHANGE": "A74I", "GROUP_LABEL": "class 1"}
{"RESIDUE_CHANGE": "Q59M", "GROUP_LABEL": "class 1"}
{"RESIDUE_CHANGE": "D18K", "GROUP_LABEL": "class 0"}
{"RESIDUE_CHANGE": "A72Y", "GROUP_LABEL": "class 1"}

Please turn your attention to the following entry.
Prompt line: Kindly determine if abundance fitness recorded for L46D is above or exactly -0.7.
Response line: class 1
